molecular target: MarA (Escherichia coli, UniProt P0ACH5); experiment: MarA-activated selective marker (ccdB) cell survival assay, Example 2; format: cell-based; design: key: * indicates good inhibition of MarA; ** indicates very good inhibition of MarA; settings: inhibition of MarA: cell survival under conditions of MarA expression (ccdB under MarA-activated promoter)
Sequence (P0ACH5 whole entry, looked up): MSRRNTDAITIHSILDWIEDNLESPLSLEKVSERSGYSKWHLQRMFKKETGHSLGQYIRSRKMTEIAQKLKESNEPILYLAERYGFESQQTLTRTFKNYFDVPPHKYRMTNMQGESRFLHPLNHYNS
Readout Name: MarA inhibition class

>>> result("CSc1nnc2c(n1)OC(c1ccc([N+](=O)[O-])o1)Nc1ccccc1-2 (stereo not drawn) [C]")
"*"
>>> result("CN(C)c1ccc(-c2cc(=O)c3ccccc3o2)cc1 [AW]")
"**"
>>> result("CCSc1nnc2c(n1)OC(c1ccc(O)c(O)c1)Nc1ccccc1-2 (stereo not drawn) [E]")
"*"
>>> result("O=c1cc(-c2ccc(F)cc2)oc2ccccc12 [BE, 2-(4-fluorophenyl)-4H-chromen-4-one]")
"*"
>>> result("O=C(O)COn1c(-c2ccccc2)nc2ccc([N+](=O)[O-])cc21 [BD]")
"*"

input: Tell me the measured MarA inhibition class of CCOC(=O)C1=C(C)N=c2s/c(=C/c3ccc(-c4cccc(C(F)(F)F)c4)o3)c(=O)n2C1c1ccccc1 (stereo not drawn) [U] , please.
output: **

input: Here is the next compound: O=C1C=Cc2ccccc2/C1=N/Oc1ccc2noc3c2c1C(=O)c1ccccc1-3 [Z]
output: *

input: Here is the next compound: CSc1cccc(NC(=O)CSc2nnc(-c3ccc4nonc4c3)n2C)c1 [AE]
output: *

input: Here is the next compound: O=c1cc(-c2ccc(O)cc2)oc2ccccc12 [BG, 2-(4-hydroxyphenyl)-4H-chromen-4-one]
output: *

input: Here is the next compound: Cc1ccc(-c2nc3c(=O)n(-c4ccccc4)c4c(c(=O)n(C)c(=O)n4C)c3o2)cc1 [AL]
output: *

input: Here is the next compound: CCOC(=O)C1=C(C)N=c2sc(=Cc3ccc(-c4ccc(C)c([N+](=O)[O-])c4)o3)c(=O)n2C1c1ccc(N(C)C)cc1 (stereo not drawn) [X]
output: **

input: Here is the next compound: COc1ccc2c(=O)cc(-c3ccccc3)oc2c1 [BA, 7-methoxy-2-phenyl-4H-chromen-4-one]
output: *

input: Here is the next compound: O=c1/c(=C\c2c[nH]nc2-c2ccccc2)sc2nc3ccccc3n12 [M]
output: **

input: Here is the next compound: N#Cc1c(-c2ccc3c(c2)OCO3)c(C#N)c2nc3ccccc3n2c1N [AB]
output: **

input: Here is the next compound: O=C1C(=C2NC(c3ccccn3)C3C(=O)N(c4ccccc4)C(=O)C23)C(=O)c2ccccc21 (stereo not drawn) [BB]
output: *

input: Here is the next compound: CCCCSc1nnc2c(n1)OC(c1ccc(OCC)cc1)Nc1ccccc1-2 (stereo not drawn) [J]
output: *

input: Here is the next compound: Cc1ccc(COn2c(-c3ccccc3)nc3ccc([N+](=O)[O-])cc32)cc1 [AJ]
output: *

input: Here is the next compound: CCCSc1nnc2c(n1)OC(c1ccc(-c3cccc([N+](=O)[O-])c3)o1)Nc1ccccc1-2 (stereo not drawn) [L]
output: **
